assay: Pharmacokinetics in rats; conditions: male, Sprague Dawley, rat, in vivo, read-out: mean terminal elimination half-life (t1/2,z) (converted)
Assay Metric: half-life (h)
# unit: h | format: bare number

Q) # lookup: half-life of CO[C@H]1/C=C/C[C@H](C)[C@@H](C)S(=O)(=O)NC(=O)c2ccc3c(c2)N(C[C@@H]2CC[C@H]21)C[C@@]1(CCCc2cc(Cl)ccc21)CO3 [AMG 176]
A) 19.5

----------
tested on: KMS-12-BM; experiment: Cell viability (CellTiterGlo), KMS-12-BM; type: cell-based; details: Homo sapiens, Multiple myeloma, 24 hours, 10% FBS, read-out: AMS 176 IC50
Assay Metric: IC50 (nM)
A number alone suffices; assume nM.

Q) Form field: IC50 recorded for "CO[C@H]1/C=C/C[C@H](C)[C@@H](C)S(=O)(=O)NC(=O)c2ccc3c(c2)N(C[C@@H]2CC[C@H]21)C[C@@]1(CCCc2cc(Cl)ccc21)CO3" with KMS-12-BM (enter value)
A) 15
